FYI, the data here is from patent US12060351B2.

Please go through the items and note down their pIC50.
TARGET OF ASSAY: IRAK4 enzyme (Homo sapiens)
Construct: purchased Carna Biosciences, Chuo-ku, Kobe, Japan
ASSAY INFO: IRAK4 Biochemical Assay (TR-FRET, STK1 KinEASE)
MEASUREMENT PARAMETERS: 500 μM ATP, Table 2 second part (compounds 33-343), read-out: IC50 IRAK4-HTBS
Keep in mind that pIC50 stands for -log10 of concentration in molar terms.

What the record says about N#Cc1cnn2c(-c3cc(NC4COC4)c(-c4nnc([C@H]5CC[C@H](NC(=O)C6CC6)CC5)s4)cn3)ccc2c1 [Example 135] : pIC50 is 9.28

What the record says about CC(C)Nc1cc(-c2ccc3cc(C#N)cnn23)ncc1-c1nnc(C(=O)N[C@H]2CC[C@@H](O)CC2)s1 [Example 224] : pIC50 is 8.95

What the record says about CC(C)Nc1cc(-c2ccc3cc(C#N)cnn23)ncc1-c1nnc([C@H]2CC[C@H](NC(=O)C3CC3)CC2)s1 [Example 125] : pIC50 is 9.60

What the record says about N#Cc1cnn2c(-c3cc(NC4COC4)c(-c4nnc([C@H]5CC[C@H](NC(=O)N6CCOCC6)CC5)s4)cn3)ccc2c1 [Example 142] : pIC50 is 9.42

What the record says about CC(C)Nc1cc(-c2ccc3cc(C#N)cnn23)ncc1-c1nnc(N2C[C@H]3CC[C@@H](C2)[C@@H]3NC(=O)C2(C)CCOCC2)s1 [Example 95] : pIC50 is 9.15

What the record says about CC(=O)N[C@H]1CC[C@H](c2nnc(-c3cnc(-c4ccc5cc(C#N)cnn45)cc3NC3(C)CCOCC3)s2)CC1 [Compound 268] : pIC50 is 9.21

----------
TARGET OF ASSAY: IRAK4 enzyme (Homo sapiens, UniProt Q9NWZ3)
Construct: purchased Carna Biosciences, Chuo-ku, Kobe, Japan
Sequence (Q9NWZ3 whole entry): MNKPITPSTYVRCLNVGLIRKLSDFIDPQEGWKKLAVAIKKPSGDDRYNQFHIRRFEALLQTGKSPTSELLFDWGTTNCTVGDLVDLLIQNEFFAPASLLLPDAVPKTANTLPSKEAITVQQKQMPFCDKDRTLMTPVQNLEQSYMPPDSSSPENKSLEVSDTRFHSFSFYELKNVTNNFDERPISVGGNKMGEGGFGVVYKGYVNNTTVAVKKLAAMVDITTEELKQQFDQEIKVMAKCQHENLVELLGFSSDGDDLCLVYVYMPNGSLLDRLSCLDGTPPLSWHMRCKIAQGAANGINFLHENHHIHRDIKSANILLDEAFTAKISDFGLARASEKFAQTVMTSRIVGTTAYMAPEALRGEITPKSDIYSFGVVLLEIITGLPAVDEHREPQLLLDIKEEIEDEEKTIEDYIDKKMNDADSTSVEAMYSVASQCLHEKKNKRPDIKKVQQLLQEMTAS
ASSAY INFO: IRAK4 Biochemical Assay (TR-FRET, STK1 KinEASE)
MEASUREMENT PARAMETERS: 500 μM ATP, Table 2 second part (compounds 33-343), read-out: IC50 IRAK4-HTBS
Hi! Could you tag entries with IC50 below 1 nM as y, and those at or above as n? Much appreciated.

Answer whether the compound `CC(C)Nc1cc(-c2ccc3cc(C#N)cnn23)ncc1-c1nnc(N2C[C@H]3CC[C@@H](C2)[C@@H]3O)s1` has IC50 strictly less than 1 nM n

Answer whether the compound `CC(=O)N[C@@H]1C[C@H]2CC[C@@H](C1)N2c1nnc(-c2cnc(-c3ccc4cc(C#N)cnn34)cc2NC(C)C)s1` has IC50 strictly less than 1 nM y

Answer whether the compound `CC(C)Nc1cc(-c2ccc3cc(C#N)cnn23)ncc1-c1nnc(N2C[C@H]3CC[C@@H](C2)[C@@H]3N)s1` has IC50 strictly less than 1 nM y

Answer whether the compound `CC(C)Nc1cc(-c2ccc3cc(C#N)cnn23)ncc1-c1nnc(C(=O)N[C@H]2CC[C@H](O)CC2)s1` has IC50 strictly less than 1 nM n

Answer whether the compound `C[C@H](C#N)Nc1cc(-c2ccc3cc(C#N)cnn23)ncc1-c1nnc(N2C[C@H]3CC[C@@H](C2)[C@@H]3NC(=O)C(C)(C)O)s1` has IC50 strictly less than 1 nM y

Answer whether the compound `CC(C)Nc1cc(-c2ccc3cc(C#N)cnn23)ncc1-c1nnc(N2C[C@H]3CC[C@@H](C2)[C@@H]3Nc2ncccc2F)s1` has IC50 strictly less than 1 nM n

Answer whether the compound `CC(C)Nc1cc(-c2ccc3cc(C#N)cnn23)ncc1-c1nnc([C@H]2C[C@@](C)(O)C2)s1` has IC50 strictly less than 1 nM y

Answer whether the compound `CC(C)Nc1cc(-c2ccc3cc(C#N)cnn23)ncc1-c1nnc(C(=O)N[C@H]2C[C@@](C)(O)C2)s1` has IC50 strictly less than 1 nM n

Answer whether the compound `CC(=O)N[C@]1(C)[C@@H]2CC[C@H]1CN(c1nnc(-c3cnc(-c4ccc5cc(C#N)cnn45)cc3N[C@H](C)C#N)s1)C2` has IC50 strictly less than 1 nM n

Answer whether the compound `CC(C)Nc1cc(-c2ccc3cc(C#N)cnn23)ncc1-c1nnc(N2C[C@H]3CC[C@@H](C2)[C@@H]3NC(=O)N2CCN(S(C)(=O)=O)CC2)s1` has IC50 strictly less than 1 nM n

Answer whether the compound `CC(=O)N[C@H]1CC[C@H](c2nnc(-c3cnc(-c4ccc5cc(C#N)cnn45)cc3NC34CCC(O)(CC3)CC4)s2)CC1` has IC50 strictly less than 1 nM n

Answer whether the compound `CC(=O)N[C@H]1CC[C@H](c2nnc(-c3cnc(-c4ccc5cc(C#N)cnn45)cc3N[C@H]3CCC[C@@H](O)C3)s2)CC1` has IC50 strictly less than 1 nM y

----------
TARGET OF ASSAY: IRAK4 enzyme (Homo sapiens, UniProt Q9NWZ3)
Construct: purchased Carna Biosciences, Chuo-ku, Kobe, Japan
ASSAY INFO: IRAK4 Biochemical Assay (TR-FRET, STK1 KinEASE)
MEASUREMENT PARAMETERS: 500 μM ATP, Table 2 second part (compounds 33-343), read-out: IC50 IRAK4-HTBS
MEASURED QUANTITY: IC50

What the record says about `COC(=O)N[C@H]1CC[C@@H](c2nnc(-c3cnc(-c4ccc5cc(C#N)cnn45)cc3NC3COC3)s2)CC1` : IC50 is 0.62 nM

What the record says about `COC(=O)NC[C@H]1C[C@H](Nc2cc(-c3ccc4cc(C#N)cnn34)ncc2-c2nnc([C@H]3CC[C@H](NC(=O)N4CCOCC4)CC3)s2)C1` : IC50 is 0.34 nM

What the record says about `CC(=O)N[C@@H]1[C@@H]2C[C@H]1CN(c1nnc(-c3cnc(-c4ccc5cc(C#N)cnn45)cc3NC3COC3)s1)C2` : IC50 is 0.37 nM

What the record says about `CC(C)(O)C(=O)N[C@@H]1[C@@H]2CC[C@H]1CN(c1nnc(-c3cnc(-c4ccc5cc(C#N)cnn45)cc3NC3CCOCC3)s1)C2` : IC50 is 0.89 nM

What the record says about `CC(C)Nc1cc(-c2ccc3cc(C#N)cnn23)ncc1-c1nnc(N2C3CC2CN(C(=O)CN=S(C)(C)=O)C3)s1` : IC50 is 0.89 nM

What the record says about `CC(=O)N[C@H]1[C@@H]2CC[C@H]1CN(c1nnc(-c3cnc(-c4ccc5cc(C#N)cnn45)cc3NC(C)C)s1)C2` : IC50 is 0.89 nM

What the record says about `CC(C)(O)C(=O)N[C@@H]1[C@@H]2CC[C@H]1CN(c1nnc(-c3cnc(-c4ccc5cc(C#N)cnn45)cc3NC3COC3)s1)C2` : IC50 is 0.6 nM

What the record says about `CC(C)Nc1cc(-c2ccc3cc(C#N)cnn23)ncc1-c1nnc(N2C[C@H]3CC[C@@H](C2)[C@@H]3NC(=O)C(=O)N=S(C)(C)=O)s1` : IC50 is 0.51 nM

What the record says about `CC(C)Nc1cc(-c2ccc3cc(C#N)cnn23)ncc1-c1nnc(N2CCS(=N)(=O)CC2)s1` : IC50 is 3.81 nM

What the record says about `CC(=O)N[C@@H]1CCN(c2nnc(-c3cnc(-c4ccc5cc(C#N)cnn45)cc3NC(C)C)s2)C[C@@H]1O` : IC50 is 0.29 nM

What the record says about `CC(C)Nc1cc(-c2ccc3cc(C#N)cnn23)ncc1-c1nnc(C(=O)N2CCC[C@H]2CO)s1` : IC50 is 0.81 nM

What the record says about `CC(=O)N[C@H]1CC[C@H](c2nnc(-c3cnc(-c4ccc5cc(C#N)cnn45)cc3NC3CCOCC3)s2)CC1` : IC50 is 0.63 nM

What the record says about `CC(C)Nc1cc(-c2ccc3cc(C#N)cnn23)ncc1-c1nnc(N2C[C@H]3CC[C@@H](C2)[C@H]3O)s1` : IC50 is 0.48 nM

What the record says about `CC(=O)N[C@H]1[C@@H]2CCC[C@H]1CN(c1nnc(-c3cnc(-c4ccc5cc(C#N)cnn45)cc3NC(C)C)s1)C2` : IC50 is 1.15 nM

What the record says about `CC(C)(O)C(=O)N[C@H]1CC[C@@H](c2nnc(-c3cnc(-c4ccc5cc(C#N)cnn45)cc3NC3COC3)s2)CC1` : IC50 is 0.8 nM

What the record says about `CC(=O)N[C@H]1[C@@H]2CN(c3nnc(-c4cnc(-c5ccc6cc(C#N)cnn56)cc4NC(C)C)s3)C[C@@H]21` : IC50 is 0.15 nM

What the record says about `CC1(Nc2cc(-c3ccc4cc(C#N)cnn34)ncc2-c2nnc(N3C[C@H]4CC[C@@H](C3)[C@@H]4NC(=O)C(C)(C)O)s2)COC1` : IC50 is 0.84 nM

What the record says about `CC(=O)N[C@H]1C[C@H](c2nnc(-c3cnc(-c4ccc5cc(C#N)cnn45)cc3NC3CCOCC3)s2)C1` : IC50 is 1.17 nM

What the record says about `COC(=O)N[C@H]1CC[C@H](c2nnc(-c3cnc(-c4ccc5cc(C#N)cnn45)cc3NC(C)C)s2)CC1` : IC50 is 0.89 nM

What the record says about `CC(C)Nc1cc(-c2ccc3cc(C#N)cnn23)ncc1-c1nnc(N2C[C@H]3CC[C@@H](C2)[C@@H]3NC(=O)C2CC2)s1` : IC50 is 0.46 nM

What the record says about `CC(C)Nc1cc(-c2ccc3cc(C#N)cnn23)ncc1-c1nnc(N2C[C@H]3CC[C@@H](C2)[C@@H]3NC(=O)CN=S(C)(C)=O)s1` : IC50 is 1.13 nM

What the record says about `CC(C)Nc1cc(-c2ccc3cc(C#N)cnn23)ncc1-c1nnc(NCC(C)(C)O)s1` : IC50 is ≥ 1000 nM

What the record says about `CC(C)Nc1cc(-c2ccc3cc(C#N)cnn23)ncc1-c1nnc(C(=O)N[C@H]2C[C@](C)(O)C2)s1` : IC50 is 0.68 nM

What the record says about `CNc1cc(-c2ccc3cc(C#N)cnn23)ncc1-c1nnc(N2C[C@H]3C[C@@H](C2)[C@@H]3NC(C)=O)s1` : IC50 is 0.76 nM

What the record says about `CC(=O)N[C@@H]1[C@@H]2CC[C@H]1CN(c1nnc(-c3cnc(-c4ccc5cc(C#N)cnn45)cc3NC3(C)COC3)s1)C2` : IC50 is 0.63 nM

What the record says about `COC(=O)N[C@H]1CC[C@H](Nc2cc(-c3ccc4cc(C#N)cnn34)ncc2-c2nnc([C@H]3CC[C@H](NC(C)=O)CC3)s2)CC1` : IC50 is 0.55 nM
